Where do these numbers come from? They come from paper PMC4505625.

# Test system: MHH-CALL4 cells
# test summary: MHH-CALL4 cell viability
# Type: cell-based, human
# conditions: 72 hr
pIC50: −log10 of the molar value.
Hi there, I'd appreciate the recorded pIC50 for every entry that follows.

// solved cases for pIC50 follow
[[record]]
compound_smiles = "Fc1cc(-c2cccc3ncc(-c4cnn(C5CCNCC5)c4)nc23)cc(F)c1CN1CCOCC1"
observed = "< 5.70"

[[record]]
compound_smiles = "C[C@@H]1CN(c2ccc(Nc3ncc4ccn(-c5cc(F)c(CN6CCOCC6)c(F)c5)c4n3)cc2)C[C@H](C)N1"
observed = "< 5.70"

[[record]]
compound_smiles = "CC(=O)Nc1cc(Oc2ccc3c(nc(Nc4ccc(F)cc4F)n3C)c2C)ccn1"
observed = "~7.00"


Shift focus to the following entry.
For `CC(=O)Nc1cc(Oc2ccc3c(c2)CCN3C(=O)Nc2ccc(CN3CCN(C)CC3)c(C(F)(F)F)c2)ncn1` , what is its reported pIC50?
~7.00
